All values here come from PubChem BioAssay (NCI).

The entries below are paired with their reported growth.
Test system: T-47D breast
Assay: NCI-60 one-dose screen, 48 h (100 = growth as untreated, 0 = no growth, -100 = all killed)
Conditions: 10 µM unless noted
Procedure: Growth inhibition of the T-47D human tumor cell line is measured as a screen for anti-cancer activity. Cells are grown in 96 well plates and exposed to the test compound for 48 hours. Compounds are tested at a single concentration, which is 10^-5 M for most compounds. The reported endpoint is percent growth (GI% or GIPRCNT), where numbers from 0 - 100% represent growth inhibition, and numbers from -100% - 0 represent cell death. For example, a value of 40 represents 60% growth inhibition. […]
The panel holds about 83,000 compounds, 20% with a hit somewhere; the sample as a whole holds those more often.
Number only, in %; omit the unit.

Known results for molecules:
Molecule	Tested On	Observable	Measured Value
CC1(C)NCCC[C@]2(C)[C@H]3C/C(=N\O)C4[C@@H]5C[C@@](C)(CO)CC[C@]5(C)CC[C@@]4(C)[C@]3(C)CC[C@@H]12 (stereo not given in full)	T-47D breast	growth	85.3
COc1ccc(C(=O)Nc2ncc(Cc3ccccc3Cl)s2)cc1	T-47D breast	growth	34.3
Cc1ccc(C2=Nn3c(nnc3-c3ccccc3)SC2)cc1	T-47D breast	growth	29.2
O=C(CCn1c[n+](CC(=O)c2ccc(-c3ccccc3)cc2)c2ccccc21)Nc1cccc2cccnc12	T-47D breast	growth	21.6

With those in mind, consider the next molecule.
**Q:** Return growth (reported value) for this molecule: `CCOc1cccc(-c2nc3sccn3c2-c2ccnc(S(C)(=O)=O)n2)c1`
**A:** 65.8
